Sourced from patent US20250002507A1

Target: Human M4 (Homo sapiens, UniProt P08173)
Construct: expressed in transfected cells
Sequence (P08173 whole entry): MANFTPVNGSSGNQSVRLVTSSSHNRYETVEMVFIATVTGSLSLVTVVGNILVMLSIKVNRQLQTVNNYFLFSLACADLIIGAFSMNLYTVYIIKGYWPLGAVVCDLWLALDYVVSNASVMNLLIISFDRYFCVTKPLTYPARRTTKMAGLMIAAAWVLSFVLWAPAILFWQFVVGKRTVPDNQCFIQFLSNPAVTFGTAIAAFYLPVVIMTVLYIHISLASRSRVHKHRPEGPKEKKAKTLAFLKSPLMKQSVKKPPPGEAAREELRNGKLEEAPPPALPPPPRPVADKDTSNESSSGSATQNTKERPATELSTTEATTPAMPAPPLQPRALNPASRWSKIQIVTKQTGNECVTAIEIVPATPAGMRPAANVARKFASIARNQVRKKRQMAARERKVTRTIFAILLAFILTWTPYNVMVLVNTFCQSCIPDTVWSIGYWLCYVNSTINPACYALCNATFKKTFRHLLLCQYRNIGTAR
Assay: mAChR M4 cell-based functional assay (calcium flux, potentiation of EC20 acetylcholine response), hM4-Gqi5 CHO-K1 cells
Details: CHO-K1; Table 4; Human M4; % ACh maximum at 30 μM; read-out: Emax (% ACh maximum at 30 μM)
Emax at 30 µM values, listed per item
The reply should be a number in %, with the unit left off.

In the examples that follow, each entry is paired with its recorded Emax at 30 µM.
COMPOUND | Emax at 30 µM [%]
[2H]C1([2H])Cc2ncc(Nc3ccccc3F)cc2C([2H])([2H])N1c1nn2cnnc2cc1C | 116
Cc1c(N2CCc3ncc(OCC(F)(F)F)cc3C2)nn2cnnc2c1C | 112
Cc1c(N2CCc3ncc(Nc4ccncc4F)cc3C2)nn2cnnc2c1C | 100

Ask: Requested read-out: Emax at 30 µM. Entry: Cc1cc2nncn2nc1N1Cc2cc(N3CCOCC3)cnc2C(C)C1 (stereo not drawn)
Reply: 83

Ask: Let us now turn to `Cc1c(N2CCc3ncc(C(F)(F)F)cc3C2)nn2c(C(F)(F)F)nnc2c1C`
Reply: 72

====

EC50 values, listed per item
Target: Human M4 (Homo sapiens)
Construct: expressed in transfected cells
Experiment: mAChR M4 cell-based functional assay (calcium flux, potentiation of EC20 acetylcholine response), hM4-Gqi5 CHO-K1 cells
Settings: hM4-Gqi5 CHO-K1 cells, calcium flux, PAM of EC20 acetylcholine; read-out: Human M4 EC50
The reply should be a number in nM, with the unit left off.

COMPOUND | EXPERIMENTAL TARGET | REPORTED MEASUREMENT
Cc1cc2nncn2nc1N1CCc2ncc(-c3cc(-c4ccccc4)no3)cc2C1 | Human M4 (Homo sapiens) | 1340
Cc1cc2nncn2nc1N1CCc2ncc(-c3cnn(C4CCCCC4)c3)cc2C1 | Human M4 (Homo sapiens) | 234
Cc1c(N2CCc3ncc(Nc4c(F)cccc4C#N)cc3C2)nn2cnnc2c1C | Human M4 (Homo sapiens) | 611

Ask: Requested read-out: EC50. Entry: `COc1ccc(Nc2cnc3c(c2)CN(c2nn4cnnc4c(C)c2C)CC3)c(F)c1F`
Reply: 597

Ask: Let us now turn to `Cc1nn(C)c(C)c1-c1cnc2c(c1)CN(c1nn3cnnc3c(C)c1C)CC2`
Reply: 149

Ask: Let us now turn to `Cc1ccc(-c2cnc3c(c2)CN(c2nn4cnnc4c(C)c2C)CC3)cn1`
Reply: 115

Ask: Let us now turn to `Cc1cc2nccn2nc1N1CCc2ncc(-c3ccn(C)n3)cc2C1`
Reply: 1180

Ask: Let us now turn to `Cc1c(N2CCc3ncc(-c4ccns4)cc3C2)nn2cnnc2c1C`
Reply: 49.3

Ask: Let us now turn to `Cc1c(N2CCc3ncccc3C2)nn2cnnc2c1C`
Reply: 3970

Ask: Let us now turn to `Cc1c(N2CCc3ncc(-c4cnn(CC5CC5)c4)cc3C2)nn2cnnc2c1C`
Reply: 162

Ask: Let us now turn to `Cc1c(N2CCc3ncc(-c4cnn(CC5CC5)c4)cc3C2)nn2c(C(F)(F)F)nnc2c1C`
Reply: 496

Ask: Let us now turn to `COc1ccc(Oc2cnc3c(c2)CN(c2nn4cnnc4c(C)c2C)CC3)cc1Cl`
Reply: 1040

Ask: Let us now turn to `Cc1c(N2CCc3ncc(Nc4cccc(C(F)(F)F)c4F)cc3C2)nn2cnnc2c1C`
Reply: 882

Ask: Let us now turn to `[2H]c1nnc2c(C)c(C)c(N3CCc4ncc(-c5c(C)nn(C)c5C)cc4C3)nn12`
Reply: 164

Ask: Let us now turn to `[2H]c1nnc2c(C)c(C)c(N3CCc4ncc(Nc5cc(F)ccc5F)cc4C3)nn12`
Reply: 49.7

Ask: Let us now turn to `Cc1c(N2CCc3ncc(-c4ccc(C(F)(F)F)nc4)cc3C2)nn2cnnc2c1C`
Reply: 295

Ask: Let us now turn to `Cc1cc2nncn2nc1N1CCc2ncc(-c3c(C)nn(C)c3C)cc2C1`
Reply: 398

Ask: Let us now turn to `Cc1c(N2CCc3ncc(Nc4cccc(F)c4F)cc3C2)nn2cnnc2c1C`
Reply: 82.4

Ask: Let us now turn to `Cc1c(N2CCc3ncc(C(=O)Nc4ccccc4F)cc3C2)nn2cnnc2c1C`
Reply: 695

Ask: Let us now turn to `Cc1c(N2CCc3ncc(-c4cccnc4)cc3C2)nn2cnnc2c1C`
Reply: 147
